Tested on: recRSV A2-L19F-renilla
Test: microbe, parasite or virus in culture
Format: cell-based
Conditions: BEAS-2B; 95% confidence interval in parentheses; inactive = less than 50% reduction of mean reporter signal
READOUT_KIND: EC50 RSV A2-L19F-renilla

compound="CCOC(=O)C1=C(C)NC(C)=C(C(=O)OC)C1c1cccc([N+](=O)[O-])c1 (stereo not shown) [Nitrendipine]" result=inactive^e
compound="Nc1nc(N)c2nc(-c3ccccc3)c(N)nc2n1 [Triamterene]" result=inactive^e
compound="COc1cc2nc(N3CCCN(C)CC3)nc(NC3CCN(Cc4ccccc4)CC3)c2cc1OC [BIX 01294]" result=inactive^e

All figures here come from patent US10100372B2.
